Target: human MC4R receptor (human, UniProt P32245 1-332)
Sequence (P32245 whole entry): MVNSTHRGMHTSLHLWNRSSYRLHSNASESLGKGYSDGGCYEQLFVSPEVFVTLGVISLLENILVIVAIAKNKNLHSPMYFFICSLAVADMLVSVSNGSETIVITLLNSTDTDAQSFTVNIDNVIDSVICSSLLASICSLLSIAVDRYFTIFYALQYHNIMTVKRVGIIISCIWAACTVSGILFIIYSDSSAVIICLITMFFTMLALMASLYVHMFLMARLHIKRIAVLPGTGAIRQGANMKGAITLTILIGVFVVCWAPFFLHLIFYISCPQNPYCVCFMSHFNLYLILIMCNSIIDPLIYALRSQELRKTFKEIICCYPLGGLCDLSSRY
Test: cell-based or functional assay
Starred links: 1 amine or outer side, 2 acyl side, 3 side chain; linkers in the order of their positions; H or OH if unused. Positions of bridges follow the written chain, without caps; N, C: chain ends. Non-standard residues stand in square brackets, D forms with d. Primed or numbered codes have the meaning given here. dTyr(4-OMe)″ = O-methyl-D-tyrosine, COc1ccc(C[C@@H](N[*:1])C(=O)[*:2])cc1; Cit = NC(=O)NCCC[C@H](N)C(=O)O; Aib = CC(C)(N)C(=O)O
The binders listed here are annotated with their % max activation.
Dear colleague, please return just the value in %, with no unit written.

// below: answered binders
INSERT INTO results (binder, experimental_readout, test_value) VALUES
  ('Ac-C[Aib]R[dF]RFC-NH2 (disulfide 1-7; SMILES CC(=O)N[C@H]1CSSC[C@@H](C(N)=O)NC(=O)[C@H](Cc2ccccc2)NC(=O)[C@H](CCCNC(=N)N)NC(=O)[C@@H](Cc2ccccc2)NC(=O)[C@H](CCCNC(=N)N)NC(=O)C(C)(C)NC1=O) [CTX-1635]', '% max activation', 112),
  ('Ac-RC[Aib]R[dTyr(4-OMe)″]R[dW]C-NH2 (disulfide 2-8) [CTX-1297]', '% max activation', 97),
  ('Ac-RC[Aib][Cit][dF]R[dW]C-NH2 (disulfide 2-8) [CTX-1290]', '% max activation', 88),
  ('Ac-CGR[dF]RWC-NH2 (disulfide 1-7; SMILES CC(=O)N[C@H]1CSSC[C@@H](C(N)=O)NC(=O)[C@H](Cc2c[nH]c3ccccc23)NC(=O)[C@H](CCCNC(=N)N)NC(=O)[C@@H](Cc2ccccc2)NC(=O)[C@H](CCCNC(=N)N)NC(=O)CNC1=O) [CTX-1629]', '% max activation', 102),
  ('{CH2CO}-[dA]R[dF]RFC-NH2 (thioether N-6; SMILES C[C@H]1NC(=O)CSC[C@@H](C(N)=O)NC(=O)[C@H](Cc2ccccc2)NC(=O)[C@H](CCCNC(=N)N)NC(=O)[C@@H](Cc2ccccc2)NC(=O)[C@H](CCCNC(=N)N)NC1=O) [CTX-1657]', '% max activation', 78);

Query :: Provide only the value of recorded % max activation for Ac-RC[dA]R[dF]RWC-NH2 (disulfide 2-8; SMILES CC(=O)N[C@@H](CCCNC(=N)N)C(=O)N[C@H]1CSSC[C@@H](C(N)=O)NC(=O)[C@H](Cc2c[nH]c3ccccc23)NC(=O)[C@H](CCCNC(=N)N)NC(=O)[C@@H](Cc2ccccc2)NC(=O)[C@H](CCCNC(=N)N)NC(=O)[C@@H](C)NC1=O) [CTX-1211]
Result :: 96

Query :: Complete the entry with % max activation for Ac-CG[Cit][dF]RWC-NH2 (disulfide 1-7; SMILES CC(=O)N[C@H]1CSSC[C@@H](C(N)=O)NC(=O)[C@H](Cc2c[nH]c3ccccc23)NC(=O)[C@H](CCCNC(=N)N)NC(=O)[C@@H](Cc2ccccc2)NC(=O)[C@H](CCCNC(N)=O)NC(=O)CNC1=O) [CTX-1630]
Result :: 102
